Where do these numbers come from? They come from ChEMBL document CHEMBL1212851.

# System: BGC-823
# Test protocol: Cytotoxicity against human BGC823 cells
# Format: functional, cell-based
Active and inactive are the calls of the source. No cut-off for these calls is given here.
Parameter measured: Activity

Field: example entries. Status: answers known.
O=C1C(c2ccc(O)c(OS(=O)(=O)O)c2)=c2c(c3c(n2CCc2ccc(O)cc2)=C(c2ccc(O)c(OS(=O)(=O)O)c2)C(=O)c2cc(O)c(O)cc2-3)-c2cc(O)c(O)cc21    inactive
O=C1C(c2ccc(O)c(O)c2)=c2c(c3c(n2CCc2ccc(O)cc2)=C(c2ccc(O)c(O)c2)C(=O)c2cc(O)c(O)cc2-3)-c2cc(O)c(O)cc21    inactive
O=C1C(c2ccc(O)c(O)c2)=C2C(=C(c3ccc(O)c(O)c3)C(=O)N2CCc2ccc(OS(=O)(=O)O)cc2)c2cc(O)c(O)cc21    inactive
O=C1C(c2ccc(O)c(O)c2)=c2c(c3c(n2CCc2ccc(O)cc2)=C(c2ccc(O)c(O)c2)C(=O)c2cc(O)c(OS(=O)(=O)O)cc2-3)-c2cc(O)c(O)cc21    inactive

As a next step, examine the compound that follows.
Query block: I am curious: what Activity value has been reported for `O=C1C(c2ccc(O)c(OS(=O)(=O)O)c2)=c2c(c3c(n2CCc2ccc(O)cc2)=C(c2ccc(O)c(O)c2)C(=O)c2cc(O)c(OS(=O)(=O)O)cc2-3)-c2cc(O)c(O)cc21` ?
Result block: inactive

----------
# Tested on: Human immunodeficiency virus 1
# Test protocol: Binding affinity to HIV1 recombinant Vif at 20 ug/ml
# if measured RU < 400 pg/mm2: Met  # else: Not met

Completed entries (count: 2):
O=C1C(c2ccc(O)c(O)c2)=c2c(c3c(n2CCc2ccc(O)cc2)=C(c2ccc(O)c(O)c2)C(=O)c2cc(O)c(O)cc2-3)-c2cc(O)c(O)cc21    Met
O=C1C(c2ccc(O)c(O)c2)=C2C(=C(c3ccc(OS(=O)(=O)O)c(O)c3)C(=O)N2CCc2ccc(O)cc2)c2cc(O)c(O)cc21    Not met

Query block: Lab log: compare recorded RU with 400 pg/mm2; is it strictly lower for `O=C1C(c2ccc(O)c(O)c2)=c2c(c3c(n2CCc2ccc(O)cc2)=C(c2ccc(O)c(OS(=O)(=O)O)c2)C(=O)c2cc(O)c(OS(=O)(=O)O)cc2-3)-c2cc(O)c(O)cc21` ?
Result block: Met

Query block: Lab log: compare recorded RU with 400 pg/mm2; is it strictly lower for `O=C1C(c2ccc(O)c(O)c2)=C2C(=C(c3ccc(O)c(O)c3)C(=O)N2CCc2ccc(O)cc2)c2cc(O)c(O)cc21` ?
Result block: Not met

Query block: Lab log: compare recorded RU with 400 pg/mm2; is it strictly lower for `O=C1C(c2ccc(O)c(O)c2)=c2c(c3c(n2CCc2ccc(O)cc2)=C(c2ccc(O)c(OS(=O)(=O)O)c2)C(=O)c2cc(O)c(OS(=O)(=O)O)cc2-3)-c2cc(OS(=O)(=O)O)c(O)cc21` ?
Result block: Met

----------
# Tested on: HCT-8
# Test protocol: Cytotoxicity against human HCT8 cells
# Type: functional, cell-based
Calls of active or inactive are those of the source. The calls are words filed in the database; no cut-off is given here.
Parameter measured: Activity

Field: example entries. Status: answers known.
O=C1C(c2ccc(O)c(O)c2)=C2C(=C(c3ccc(OS(=O)(=O)O)c(O)c3)C(=O)N2CCc2ccc(O)cc2)c2cc(O)c(O)cc21    inactive
O=C1C(c2ccc(O)c(O)c2)=c2c(c3c(n2CCc2ccc(O)cc2)=C(c2ccc(O)c(OS(=O)(=O)O)c2)C(=O)c2cc(O)c(OS(=O)(=O)O)cc2-3)-c2cc(OS(=O)(=O)O)c(O)cc21 [BACULIFERIN H]    inactive
O=C1C(c2ccc(O)c(O)c2)=C2C(=C(c3ccc(O)c(O)c3)C(=O)N2CCc2ccc(OS(=O)(=O)O)cc2)c2cc(O)c(O)cc21    inactive
O=C1C(c2ccc(O)c(O)c2)=c2c(c3c(n2CCc2ccc(O)cc2)=C(c2ccc(O)c(OS(=O)(=O)O)c2)C(=O)c2cc(O)c(OS(=O)(=O)O)cc2-3)-c2cc(O)c(O)cc21 [BACULIFERIN E]    inactive

Query block: I am curious: what Activity value has been reported for O=C1C(c2ccc(O)c(O)c2)=c2c(c3c(n2CCc2ccc(O)cc2)=C(c2ccc(O)c(O)c2)C(=O)c2cc(O)c(O)cc2-3)-c2cc(O)c(O)cc21 [PURPURONE] ?
Result block: inactive
